The reported numbers originate from patent EP1388586A2.

Listed substances paired with reported pIC50
- Assay Target: DRB1*1101 (DR5w11) (Homo sapiens, UniProt P01903+P01911, A100R/A169T/A87E/I96F/K41T/L162R/M171V/P40S/Q125H/Q178H/Q39Y/Q99D/R42S/S66Y/T262R/V115G/W38E)
- Construct: used as sources of human HLA class II molecules; endogenous in cells; host or cells: SWEIG (EBV-transformed homozygous B cell line)
- Sequence (P01903 26-254, other chains not shown): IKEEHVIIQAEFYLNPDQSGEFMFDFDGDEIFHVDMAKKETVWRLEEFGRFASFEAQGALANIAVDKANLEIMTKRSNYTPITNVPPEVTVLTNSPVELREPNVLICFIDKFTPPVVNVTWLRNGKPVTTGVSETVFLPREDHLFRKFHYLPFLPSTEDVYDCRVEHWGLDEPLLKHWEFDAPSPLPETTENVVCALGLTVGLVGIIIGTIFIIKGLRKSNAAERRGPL
- Assay Notes: Class II peptide-binding assay, DR5w11;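 further: competition by unlabeled test peptide against iodinated probe peptide binding to affinity-purified HLA-DR, class II amount titrated beforehand, half-maximal inhibitory concentration read as approximate Kd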
- Applied Conditions: read-out: DR5w11 nM (In IC50 Format); purified HLA DR5w11
pIC50: −log10 of the molar value. Ends that are not written are not given here.
Readout Type: pIC50

INSERT INTO measurements (substance, value_observed) VALUES
  ('YARFQSQETLKAKT-NH2 [Peptide 717.17]', 7.74),
  ('YARFQSQTTLAAKT-NH2 [Peptide 717.50]', 7.68),
  ('KYLATASTMDHARHGFLP [Peptide 765.02]', 5.30),
  ('YARFQSQTTLKSKT-NH2 [Peptide 717.23]', 7.60),
  ('Ac-AFAAAATLKA-NH2 [Peptide 770.02]', 6.98),
  ('YARFQSQTTIKAKT-NH2 [Peptide 717.19]', 7.52);
